# conditions-used: salts of tetrahydrofuran-2,3,4,5-tetracarboxylic acid; 1 ml distilled water with around 20 to 40% by weight of salt, stirred 15 minutes; no = no clear solution
measure: Salt is water-soluble

Please review the following examples before continuing.
{"molecule": "NCCCCCCCCN.O=C(O)C1OC(C(=O)O)C(C(=O)O)C1C(=O)O (centres unmarked)", "Salt is water-soluble": "yes"}
{"molecule": "NC1CCC(CC2CCC(N)CC2)CC1.O=C(O)C1OC(C(=O)O)C(C(=O)O)C1C(=O)O (centres unmarked)", "Salt is water-soluble": "no"}
{"molecule": "CC1(C)CC(N)CC(C)(CN)C1.O=C(O)C1OC(C(=O)O)C(C(=O)O)C1C(=O)O (centres unmarked)", "Salt is water-soluble": "yes"}
{"molecule": "CC(CN)CCCN.O=C(O)C1OC(C(=O)O)C(C(=O)O)C1C(=O)O (centres unmarked)", "Salt is water-soluble": "yes"}
{"molecule": "NCCCCCCCCCN.O=C(O)C1OC(C(=O)O)C(C(=O)O)C1C(=O)O (centres unmarked)", "Salt is water-soluble": "yes"}
{"molecule": "Nc1ccc(Cc2ccc(N)cc2)cc1.O=C(O)C1OC(C(=O)O)C(C(=O)O)C1C(=O)O (centres unmarked)", "Salt is water-soluble": "no"}

Prompt: Item under review: NC1CCCC(N)C1.O=C(O)C1OC(C(=O)O)C(C(=O)O)C1C(=O)O (centres unmarked) . Reported Salt is water-soluble?
Completion: yes

Prompt: Dear colleague, I am looking for the recorded Salt is water-soluble of the following molecule: NCC1CCC(CN)CC1.O=C(O)C1OC(C(=O)O)C(C(=O)O)C1C(=O)O (centres unmarked)
Completion: yes

----------
# conditions-used: salts of 3,3′,4,4′-benzophenonetetracarboxylic acid; 1 ml distilled water with around 20 to 40% by weight of salt, stirred 15 minutes
measure: Salt is water-soluble

{"smiles-input": "CC(C)(CN)CN.O=C(c1ccc(C(=O)O)c(C(=O)O)c1)c1ccc(C(=O)O)c(C(=O)O)c1", "Salt is water-soluble": "yes"}
{"smiles-input": "CC1(C)CC(N)CC(C)(CN)C1.O=C(c1ccc(C(=O)O)c(C(=O)O)c1)c1ccc(C(=O)O)c(C(=O)O)c1", "Salt is water-soluble": "yes"}
{"smiles-input": "CC1CC(CC2CCC(N)C(C)C2)CCC1N.O=C(c1ccc(C(=O)O)c(C(=O)O)c1)c1ccc(C(=O)O)c(C(=O)O)c1", "Salt is water-soluble": "yes"}
{"smiles-input": "Nc1cccc(N)n1", "Salt is water-soluble": "no"}
{"smiles-input": "NCCCCN.O=C(c1ccc(C(=O)O)c(C(=O)O)c1)c1ccc(C(=O)O)c(C(=O)O)c1", "Salt is water-soluble": "no"}

Would you kindly look at the next entry?
Prompt: Consider the compound NCCCCCCCCCCCCN.O=C(c1ccc(C(=O)O)c(C(=O)O)c1)c1ccc(C(=O)O)c(C(=O)O)c1 and give its measured Salt is water-soluble.
Completion: no

----------
# conditions-used: salts of tetrahydrofuran-2,3,4,5-tetracarboxylic acid; 1 ml distilled water with around 20 to 40% by weight of salt, stirred 15 minutes; no = no clear solution
measure: Salt is water-soluble

{"compound": "Cc1cc(-c2ccc(N)c(C)c2)ccc1N [Example V12]", "Salt is water-soluble": "no"}
{"compound": "NC1CCC(N)CC1.O=C(O)C1OC(C(=O)O)C(C(=O)O)C1C(=O)O (stereo not shown) [Example B12]", "Salt is water-soluble": "yes"}
{"compound": "CC(C)(CN)CN.O=C(O)C1OC(C(=O)O)C(C(=O)O)C1C(=O)O (stereo not shown) [Example B4]", "Salt is water-soluble": "yes"}
{"compound": "NCCCCN.O=C(O)C1OC(C(=O)O)C(C(=O)O)C1C(=O)O (stereo not shown) [Example B2]", "Salt is water-soluble": "yes"}
{"compound": "Cc1ccc(N)cc1N [Example V7]", "Salt is water-soluble": "no"}

Prompt: Quick one: Salt is water-soluble of CC1CC(CC2CCC(N)C(C)C2)CCC1N.O=C(O)C1OC(C(=O)O)C(C(=O)O)C1C(=O)O (stereo not shown) [Example B18] ?
Completion: yes

Prompt: Any idea what its Salt is water-soluble is? The compound is NCCCCCCCN.O=C(O)C1OC(C(=O)O)C(C(=O)O)C1C(=O)O (stereo not shown) [Example B7]
Completion: yes

Prompt: May I ask what Salt is water-soluble has been recorded for NCCCCCN.O=C(O)C1OC(C(=O)O)C(C(=O)O)C1C(=O)O (stereo not shown) [Example B3] ?
Completion: yes

Prompt: Field request: Salt is water-soluble | item: NCC1CCCC(CN)C1.O=C(O)C1OC(C(=O)O)C(C(=O)O)C1C(=O)O (stereo not shown) [Example B13]
Completion: yes

Prompt: Could you tell me which Salt is water-soluble is on file for Nc1cccc(N)n1.O=C(O)C1OC(C(=O)O)C(C(=O)O)C1C(=O)O (stereo not shown) [Example V9] ?
Completion: no
